# key: entry, value: MTD
Test: Antimalarial blood schizonticidal test in mice
Assay type: in vivo, Plasmodium berghei (infected ICR/HA Swiss mice)
Conditions: mouse, in vivo, sc, single dose; alive on day 14 considered cured, no 60-day data; read-out: Highest Non-Lethal Dose
Kindly answer with a numeric value in mg/kg, unit omitted.

Check out these entries, answers already filled in.
[[record]]
molecule = "Nc1nc(N)c2c(ccc3c2ccn3Cc2c(Cl)cccc2Cl)n1"
data_value = 160

[[record]]
molecule = "Nc1nc(N)c2c(ccc3c2ccn3Cc2ccsc2)n1"
data_value = 320

[[record]]
molecule = "CSc1ccc(Cn2ccc3c4c(N)nc(N)nc4ccc32)cc1"
data_value = 40


# next compound below
The reported value for Cc1ccc(Cn2ccc3c4c(N)nc(N)nc4ccc32)cc1C in terms of MTD is 80

###

Endpoint: MIC. System: S. aureus 53-180. Items follow.
Kindly answer with a numeric value in µg/mL, unit omitted.

Check out these entries, answers already filled in.
[[record]]
molecule = "COc1ccccc1Cn1ccc2c3c(N)nc(N)nc3ccc21 [Example 32]"
assay_target = "S. aureus 53-180"
measure_unit = "µg/mL"
data_value = 0.976

[[record]]
molecule = "Nc1nc(N)c2c(ccc3c2ccn3CC=Cc2ccccc2)n1 [Example 57]"
assay_target = "S. aureus 53-180"
measure_unit = "µg/mL"
data_value = 0.976

[[record]]
molecule = "Cc1ccc(C)c(Cn2c(C)cc3c4c(N)nc(N)nc4ccc32)c1 [Example 103]"
assay_target = "S. aureus 53-180"
measure_unit = "µg/mL"
data_value = 7.81

[[record]]
molecule = "Cc1cc(-n2ccc3c4c(N)nc(N)nc4ccc32)c2ccccc2n1 [Example 91]"
assay_target = "S. aureus 53-180"
measure_unit = "µg/mL"
data_value = 0.061

[[record]]
molecule = "Nc1nc(N)c2c(ccc3c2ccn3-c2cnccn2)n1 [Example 85]"
assay_target = "S. aureus 53-180"
measure_unit = "µg/mL"
data_value = 1.95


The reported value for Nc1nc(N)c2c(ccc3c2ccn3-c2ncccn2)n1 [Example 84] in terms of MIC is 3.9

The reported value for CC(C)c1ccc(Cn2ccc3c4c(N)nc(N)nc4ccc32)cc1 [Example 29] in terms of MIC is 0.976

The reported value for Nc1nc(N)c2c(ccc3c2ccn3Cc2cccs2)n1 [Example 59] in terms of MIC is 0.061

The reported value for Cc1nc2ccccc2nc1-n1ccc2c3c(N)nc(N)nc3ccc21 [Example 92] in terms of MIC is 0.488

###

Tested on: S. aureus 53-180
Quantity measured: log10 MIC (log10 of the value in µg/mL)
Please note: log10 values; quantity MIC; unit µg/mL.

Check out these entries, answers already filled in.
[[record]]
compound = "CCOc1ccc(Cn2ccc3c4c(N)nc(N)nc4ccc32)cc1 [Example 40]"
data_value = -0.31

[[record]]
compound = "Nc1nc(N)c2c(ccc3[nH]c(-c4ccccc4)cc32)n1 [Example 105]"
data_value = 1.19

[[record]]
compound = "Cc1ccc(C)c(Cn2ccc3c4c(N)nc(N)nc4ccc32)c1 [Example 23]"
data_value = -0.01

[[record]]
compound = "N#Cc1cccc(Cn2ccc3c4c(N)nc(N)nc4ccc32)c1 [Example 15]"
data_value = -1.51

[[record]]
compound = "Nc1nc(N)c2c(ccc3c2ccn3Cc2ccc(F)cc2)n1 [Example 5]"
data_value = -0.91

[[record]]
compound = "Nc1nc(N)c2c(ccc3c2c2c(n3Cc3ccccc3)CCCC2)n1 [Example 108]"
data_value = 2.40


The reported value for COc1ccc(OC)c(Cn2ccc3c4c(N)nc(N)nc4ccc32)c1 [Example 36] in terms of log10 MIC is -0.91

The reported value for Nc1nc(N)c2c(ccc3c2ccn3Cc2ccc(C(F)(F)F)cc2)n1 [Example 13] in terms of log10 MIC is -0.01

The reported value for Cc1cc(-n2ccc3c4c(N)nc(N)nc4ccc32)nc2ccccc12 [Example 88] in terms of log10 MIC is 1.50
